- Target Or Test System: Biotinylated SARS-CoV-2 S protein RBD with a C-terminal AviTag (SARS-CoV-2, UniProt P0DTC2 319-541)
Measured koff of individual entries
Respond numerically; units are s⁻¹ and should not be typed.

Guide cases for koff, answers given:
Which koff reading was recorded for the binder NIH-CoVnb-103 (VHH, not shown: large carriers) VHH: DVQLQESGGGLVQPGGSLRLSCAASGLTLDYYTIGWFRQAPGKEREGVSCISSSDDSTYYADSVKGRFTISRDNAKNTVYLQMNSLKPEDTAVYYCATAPGTYYKGSYYPMCHYYGMDYWGKGTQVTVSS ? 0.00286

Which koff reading was recorded for the binder NIH-CoVnb-109 (VHH, not shown: large carriers) VHH: DVQLQESGGGLVQSGGSLRLSCAASGFTLDYYAIGWFRQAPGKEREGVSCITNSDGSTYYADSVKGRFTTSRDNAKNTVYLQMNSLKPEDTAVYYCASFPSTYYSGSYYYTCHPGGMDYWGKGTQVTVSS ? 0.00188

Which koff reading was recorded for the binder NIH-CoVnb-108 (VHH, not shown: large carriers) VHH: DVQLQESGGGLVQPGGSLRLSCAASGFTLDYYAIGWFRQAPGKEREGVSCISNSGGSTYYADSVKGRFTTSRDNAKNTVYLQMNSLKPEDTAVYYCAAVPSTYYSGSYYYTCHPGGMDYWGKGTQVTVSS ? 0.00109

Continue with the next binder.
Which koff reading was recorded for the binder NIH-CoVnb-113 (VHH) VHH: DVQLQESGGGLVQPGGSLRLSCAASGLTLDYYAIGWFRQAPGKEREGVSCISSSDGSTYYADSVKGRFTTSRDNAKNTVYLQMNSLKPEDTAVYYCAAVPSTYYSGTYYYTCHPGGMDYWGKGTLVTVSS ? 0.000804

Attribution: patent US20230235027A1
